B1: LINE1-mini (parent)
chain: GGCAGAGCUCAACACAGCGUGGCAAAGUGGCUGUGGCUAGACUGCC

# Variants of: B1
# experiment-summary: self-cleavage, relative activity (ratio to wild type); higher = more cleavage; in vitro, sequencing; the parent is a self-cleaving ribozyme

- variant-code: "C3U A4G"
  self-cleavage: 0.31
- variant-code: "C18A G22U"
  self-cleavage: 1.74
- variant-code: "A6C C37G"
  self-cleavage: 0.03
- variant-code: "U9A C37U"
  self-cleavage: 0.12
- variant-code: "G1C C42A"
  self-cleavage: 0.02
- variant-code: "C10G C46U"
  self-cleavage: 0.06
- variant-code: "G7C A11G"
  self-cleavage: 0.03
- variant-code: "C10U A41C"
  self-cleavage: 0.03
- variant-code: "C3G U43A"
  self-cleavage: 0.41
- variant-code: "U9A A12U"
  self-cleavage: 0.13
- variant-code: "G7C A16C"
  self-cleavage: 0.11
- variant-code: "G1C C13U"
  self-cleavage: 0.04
- variant-code: "A11U G17A"
  self-cleavage: 0.04
- variant-code: "A14G G33A"
  self-cleavage: 0.07
- variant-code: "C31A G33A"
  self-cleavage: 0.06
- variant-code: "G5U A26U"
  self-cleavage: 0.09
- variant-code: "A26G A41C"
  self-cleavage: 0.12

Data provenance: the RNAGym collection of RNA variant scans (doi:10.7554/elife.90254)
